target: T1, native mouse MC1-receptor (MSH-receptor of mouse B16 melanoma cells and of mouse RAW 264.7 cells) (mouse, UniProt Q01727 1-315); assay: competition with 0.2 nM [^125I]NDP-MSH on mouse B16-F1 melanoma cells (native mouse MC1 receptor)
T1 construct: whole, on cells; also called B16 melanoma cell MSH-receptor
T1 sequence (Q01727 whole entry): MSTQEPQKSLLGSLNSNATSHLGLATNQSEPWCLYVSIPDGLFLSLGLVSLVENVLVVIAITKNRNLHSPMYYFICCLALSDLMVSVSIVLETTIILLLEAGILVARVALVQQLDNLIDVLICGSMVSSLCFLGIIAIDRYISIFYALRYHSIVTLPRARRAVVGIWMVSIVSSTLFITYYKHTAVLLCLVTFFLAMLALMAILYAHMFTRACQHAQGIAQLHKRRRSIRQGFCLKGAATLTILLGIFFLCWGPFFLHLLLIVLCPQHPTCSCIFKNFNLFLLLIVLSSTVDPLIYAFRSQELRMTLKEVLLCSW
pKi: −log10 of the molar value. Square brackets hold non-standard residues; d marks the D form. Ends that are not written are not given here.

binder	pKi
SSIISH[dF]RWGKPV-NH2 (N-terminus assumed; SMILES CC[C@H](C)[C@H](NC(=O)[C@H](CO)NC(=O)[C@@H](N)CO)C(=O)N[C@H](C(=O)N[C@@H](CO)C(=O)N[C@@H](Cc1c[nH]cn1)C(=O)N[C@H](Cc1ccccc1)C(=O)N[C@@H](CCCNC(=N)N)C(=O)N[C@@H](Cc1c[nH]c2ccccc12)C(=O)NCC(=O)N[C@@H](CCCCN)C(=O)N1CCC[C@H]1C(=O)N[C@H](C(N)=O)C(C)C)[C@@H](C)CC, Synthetic 13-residue peptide amide; also called MSO9) [MS09 (Ser-Ser-Ile-Ile-Ser-His-dPhe-Arg-Trp-Gly-Lys-Pro-Val-NH2)]	10.22
SSIISHFRWGKPV-NH2 (also: trifluoroacetate salt, Synthetic 13-residue peptide amide, obtained as the trifluoroacetate salt; also called MSO5; compound (3)) [MS05 (Ser-Ser-Ile-Ile-Ser-His-Phe-Arg-Trp-Gly-Lys-Pro-Val-NH2)]	9.00
